Collected pKi for 5-hydroxytryptamine receptor 2C (Rattus norvegicus) across several studies; compounds listed below.
Molecular target: 5-hydroxytryptamine receptor 2C (Rattus norvegicus)
Sequence (P08909 whole entry): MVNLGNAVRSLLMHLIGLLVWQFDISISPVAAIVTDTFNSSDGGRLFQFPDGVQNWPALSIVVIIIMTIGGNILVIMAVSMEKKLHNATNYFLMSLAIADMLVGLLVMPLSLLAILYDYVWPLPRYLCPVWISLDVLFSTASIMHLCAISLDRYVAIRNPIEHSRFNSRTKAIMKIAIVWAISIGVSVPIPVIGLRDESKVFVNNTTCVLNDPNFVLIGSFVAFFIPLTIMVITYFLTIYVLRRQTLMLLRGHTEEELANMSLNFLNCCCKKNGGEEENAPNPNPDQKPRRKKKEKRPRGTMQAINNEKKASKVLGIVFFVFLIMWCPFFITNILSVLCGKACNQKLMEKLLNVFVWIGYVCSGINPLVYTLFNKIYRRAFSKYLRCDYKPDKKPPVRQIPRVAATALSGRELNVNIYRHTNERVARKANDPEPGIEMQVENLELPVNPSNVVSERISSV
Answers are plain numbers, as −log10 of the molar value.

Please review the following examples before continuing.
Cn1c2c(c3ccccc31)CN(C/C=C\CCc1ccccc1)CC2 :: 6.55
c1ccc(Cn2c3c(c4ccccc42)CN(CCCOc2ccccc2)CC3)cc1 :: 7.05
CN(C)CCC(Oc1ccc(NC(=O)Nc2ccc3ccccc3c2)cc1)c1ccccc1 (stereo not given) :: 8.77

Lab note: next compound to report on.
Consider the compound shown here: Cc1cc(=O)oc2c(C)c(OCCCCN3CCC(c4noc5cc(F)ccc45)CC3)ccc12 What is its recorded pKi?
7.16

###

Target: 5-hydroxytryptamine receptor 2C (Rattus norvegicus)
Sequence (P08909 whole entry): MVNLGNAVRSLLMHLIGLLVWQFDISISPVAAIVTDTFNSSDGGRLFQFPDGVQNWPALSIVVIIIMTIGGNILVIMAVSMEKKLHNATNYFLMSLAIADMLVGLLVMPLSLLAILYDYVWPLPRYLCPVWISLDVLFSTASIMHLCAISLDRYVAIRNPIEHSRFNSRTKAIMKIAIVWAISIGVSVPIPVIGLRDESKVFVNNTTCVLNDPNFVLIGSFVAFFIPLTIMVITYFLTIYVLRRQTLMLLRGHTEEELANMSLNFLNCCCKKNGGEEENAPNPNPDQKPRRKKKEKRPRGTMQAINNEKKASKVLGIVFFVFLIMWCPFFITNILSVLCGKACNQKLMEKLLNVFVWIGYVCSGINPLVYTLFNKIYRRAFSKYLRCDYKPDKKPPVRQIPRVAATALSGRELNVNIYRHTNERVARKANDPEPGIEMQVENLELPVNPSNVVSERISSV
Values of Ki for 5-hydroxytryptamine receptor 2C (Rattus norvegicus), collected from a number of published sources:
Numbers only, in nM.

Solved cases (6 shown):
Fc1ccc(SCCCN2CCN(c3ncccn3)CC2)cc1 :: 8830
Cc1ccc(NC(=O)Nc2ccc(OC(CCN(C)C)c3ccccc3)cc2)cc1Cl (stereo unspecified) :: 0.6
O=C(c1ccc(F)cc1)C1CCN(CCn2c(=O)sc3cc(CCCCN4CCOCC4)ccc32)CC1 :: 20
Cn1c2c(c3ccccc31)CCN(CCCOc1ccccc1)C2 :: 400
Cn1ccc2cc3c(cc21)CCN3C(=O)Nc1cccnc1 :: 5.01
Cn1ccc2c3c(ccc21)N(C(=O)Nc1cccnc1)CC3 :: 25.1

# return Ki for each item in the list
1. O=C(NCCCN1CCN(c2ccccn2)CC1)c1ccccn1
2. O=C(CCCN1CCC(c2noc3cc(F)ccc23)CC1)c1cc2c3c(c1)CCN3C(=O)CC2
3. Cn1c2c(c3ccccc31)CN(CCCOc1ccc3ccccc3c1)CC2

140
610
300
